- TESTED ON: NAD-dependent protein deacetylase sirtuin-1 (Homo sapiens)
- Sequence (Q96EB6 whole entry): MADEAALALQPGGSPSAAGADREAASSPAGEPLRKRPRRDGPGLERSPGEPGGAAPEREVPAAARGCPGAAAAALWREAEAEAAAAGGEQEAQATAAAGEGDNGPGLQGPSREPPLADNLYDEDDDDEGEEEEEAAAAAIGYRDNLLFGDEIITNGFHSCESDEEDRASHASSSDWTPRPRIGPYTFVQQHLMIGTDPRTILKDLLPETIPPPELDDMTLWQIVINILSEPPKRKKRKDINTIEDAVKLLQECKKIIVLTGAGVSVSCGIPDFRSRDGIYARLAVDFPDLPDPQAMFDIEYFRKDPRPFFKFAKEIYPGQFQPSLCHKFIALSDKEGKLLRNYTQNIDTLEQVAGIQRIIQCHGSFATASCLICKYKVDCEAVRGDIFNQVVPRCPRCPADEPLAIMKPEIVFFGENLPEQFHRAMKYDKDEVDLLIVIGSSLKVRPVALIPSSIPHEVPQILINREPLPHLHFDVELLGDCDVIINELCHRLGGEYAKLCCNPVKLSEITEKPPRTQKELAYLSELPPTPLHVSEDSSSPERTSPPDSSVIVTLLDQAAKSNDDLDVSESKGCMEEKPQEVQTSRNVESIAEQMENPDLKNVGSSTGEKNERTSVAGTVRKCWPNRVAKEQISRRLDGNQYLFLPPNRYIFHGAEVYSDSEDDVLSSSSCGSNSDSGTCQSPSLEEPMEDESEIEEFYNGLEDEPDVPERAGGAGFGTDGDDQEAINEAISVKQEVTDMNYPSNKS
- PROCEDURE TEXT: Inhibition of human His6 or GST-tagged SIRT1 after 10 mins by HPLC analysis in presence of beta-NAD
Friendly reminder: IC50 below 3 µM is 1, at or above is -1.

SMILES: CC[C@H](NC(=O)[C@H](CCCCNC(C)=S)NC(=O)[C@H](CCCCNC(C)=O)NC(C)=O)C(N)=O
CATEGORY LABEL: 1
//
SMILES: CC(=O)NC[C@H](NC(=O)[C@H](CCCCNC(C)=S)NC(=O)[C@H](Cc1ccc(-c2ccccc2)cc1)NC(C)=O)C(N)=O
CATEGORY LABEL: -1
//
SMILES: CC(=O)NCCCC[C@H](NC(C)=O)C(=O)N[C@@H](CCCCNC(C)=S)C(=O)N[C@@H](Cc1ccc2ccccc2c1)C(N)=O
CATEGORY LABEL: 1

Take the molecule CC(=O)NCCCC[C@H](NC(=O)[C@H](CCCCNC(C)=S)NC(=O)[C@H](CCc1ccccc1)NC(C)=O)C(N)=O and say whether its IC50 is less than 3 µM.
-1

Field: below-cutoff. Rule: recorded IC50 strictly less than 3 µM. Subject: CC(=O)NCCCC[C@H](NC(C)=O)C(=O)N[C@@H](CCCCNC(C)=S)C(=O)N[C@@H](CCc1ccccc1)C(N)=O
1

* * *

- TESTED ON: NAD-dependent protein deacetylase sirtuin-2 (Homo sapiens, UniProt Q8IXJ6)
- Sequence (Q8IXJ6 whole entry): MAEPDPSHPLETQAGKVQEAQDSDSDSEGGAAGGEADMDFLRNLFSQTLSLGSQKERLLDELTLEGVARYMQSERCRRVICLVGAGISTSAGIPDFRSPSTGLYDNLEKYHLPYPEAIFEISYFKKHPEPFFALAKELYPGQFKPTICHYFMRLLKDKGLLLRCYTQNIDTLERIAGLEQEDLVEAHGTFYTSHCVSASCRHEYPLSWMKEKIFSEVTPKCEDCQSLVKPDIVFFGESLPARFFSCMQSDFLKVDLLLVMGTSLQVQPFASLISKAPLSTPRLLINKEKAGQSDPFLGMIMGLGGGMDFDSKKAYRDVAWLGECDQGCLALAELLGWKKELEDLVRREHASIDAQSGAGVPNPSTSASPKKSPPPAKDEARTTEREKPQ
- PROCEDURE TEXT: Inhibition of human His6-tagged SIRT2 after 12 mins by HPLC analysis in presence of beta-NAD
Please note: IC50 exactly at 4 µM is NOT MET. Only values below 4 µM get MET.

SMILES: CC(=O)NCCCC[C@H](NC(C)=O)C(=O)N[C@@H](CCCCNC(C)=S)C(=O)N[C@@H](CNC(C)=O)C(N)=O
TESTED ON: NAD-dependent protein deacetylase sirtuin-2 (Homo sapiens, UniProt Q8IXJ6)
CATEGORY LABEL: MET
//
SMILES: CC(=O)NC[C@H](NC(=O)[C@H](CCCCNC(C)=S)NC(=O)[C@H](Cc1csc2ccccc12)NC(C)=O)C(N)=O
TESTED ON: NAD-dependent protein deacetylase sirtuin-2 (Homo sapiens, UniProt Q8IXJ6)
CATEGORY LABEL: NOT MET
//
SMILES: CC(=O)NCCCC[C@H](NC(C)=O)C(=O)N[C@@H](CCCCNC(C)=S)C(=O)N[C@@H](Cc1ccc2ccccc2c1)C(N)=O
TESTED ON: NAD-dependent protein deacetylase sirtuin-2 (Homo sapiens, UniProt Q8IXJ6)
CATEGORY LABEL: MET

Please check: IC50 for CCC[C@H](NC(=O)[C@H](CCCCNC(C)=S)NC(=O)[C@H](CCCCNC(C)=O)NC(C)=O)C(N)=O , strictly under 4 µM or not?
MET

Does the reported IC50 of CCC[C@H](NC(C)=O)C(=O)N[C@@H](CCCCNC(C)=S)C(=O)N[C@@H](CCCCNC(C)=O)C(N)=O stay below 4 µM?
NOT MET

Here's an entry: CC(=O)NCCCC[C@H](NC(=O)[C@H](CCCCNC(C)=S)NC(=O)[C@H](Cc1ccc(-c2ccccc2)cc1)NC(C)=O)C(N)=O . Is its IC50 below 4 µM?
NOT MET

Report whether reported IC50 is lower than 4 µM (strictly) for CC[C@H](NC(=O)[C@H](CCCCNC(C)=S)NC(=O)[C@H](CCCCNC(C)=O)NC(C)=O)C(N)=O
MET

I'd appreciate it if you could check whether CC(=O)NC[C@H](NC(=O)[C@H](CCCCNC(C)=S)NC(=O)[C@H](CNC(C)=O)NC(C)=O)C(N)=O has IC50 smaller than 4 µM.
NOT MET

Check if IC50 falls below 4 µM for CC(=O)NCCCC[C@H](NC(=O)[C@H](CCCCNC(C)=S)NC(=O)[C@H](CCc1ccccc1)NC(C)=O)C(N)=O .
NOT MET

Determine whether this compound shows IC50 lower than 4 µM (ties excluded): CCCC[C@H](NC(C)=O)C(=O)N[C@@H](CCCCNC(C)=S)C(=O)N[C@@H](CCCCNC(C)=O)C(N)=O
MET

This collection of values is drawn from ChEMBL document CHEMBL3608247.
